Tested on: Nucleic Acid
Assay: Binding affinity to relaxed plasmid DNA (unknown origin) assessed as DNA intercalation at 4 to 100 uM after 10 mins by gel electrophoresis in presence of human topoisomerase 1
Type: nucleic-acid assay
Calls of active or inactive are those of the source. No cut-off for these calls is given here.
Classes used: 1 = active, -1 = inactive

given_smiles=CCCNc1c2ccccc2nc2ccccc12 system_under_test="Nucleic Acid" label_value=1
given_smiles=CCCCCCCCCCNc1c2ccccc2nc2ccccc12 system_under_test="Nucleic Acid" label_value=-1
given_smiles=CCCCCCCCCCNc1c2ccccc2nc2cc(C(=O)N3CCN(C)CC3)ccc12 system_under_test="Nucleic Acid" label_value=-1
given_smiles=CCCNc1c2ccccc2nc2cc(C(=O)N3CCN(C)CC3)ccc12 system_under_test="Nucleic Acid" label_value=1
